Target: Recombinant Human 5'-Nucleotidase/CD73 (Homo sapiens, UniProt P21589)
Construct: purchased R&D Systems
Sequence (P21589 27-574): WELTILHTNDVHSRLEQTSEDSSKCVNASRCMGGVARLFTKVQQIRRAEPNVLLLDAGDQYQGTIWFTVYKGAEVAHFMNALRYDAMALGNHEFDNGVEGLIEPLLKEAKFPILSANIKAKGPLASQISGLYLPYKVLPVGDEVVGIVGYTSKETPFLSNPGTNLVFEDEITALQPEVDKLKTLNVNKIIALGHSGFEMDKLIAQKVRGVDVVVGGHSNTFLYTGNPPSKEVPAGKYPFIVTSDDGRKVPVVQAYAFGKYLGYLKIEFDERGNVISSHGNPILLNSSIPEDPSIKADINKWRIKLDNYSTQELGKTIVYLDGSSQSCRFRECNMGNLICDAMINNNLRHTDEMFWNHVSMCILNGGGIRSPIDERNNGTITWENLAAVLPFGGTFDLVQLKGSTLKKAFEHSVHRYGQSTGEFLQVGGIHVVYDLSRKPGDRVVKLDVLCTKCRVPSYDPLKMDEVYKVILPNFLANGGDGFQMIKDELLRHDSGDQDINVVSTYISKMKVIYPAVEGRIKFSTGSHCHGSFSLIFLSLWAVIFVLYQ
Assay: Enzyme activity of purified CD73 (AMP-Glo assay)
Format: biochemical
Settings: 5 μM AMP, 0.1 ng CD73, 5min at 23°C
Test Readout: IC50 (µM)
Write the answer as a number in µM, unit excluded.

# input Looking for the measured IC50 of Nc1ncnc2c1ncn2[C@@H]1O[C@H](COP(=O)(O)CP(=O)(O)O)[C@@H](O)[C@H]1O , can you help?
# output 0.157

---

Target: Recombinant Human 5'-Nucleotidase/CD73 (Homo sapiens)
Construct: purchased R&D Systems
Experiment: Enzyme activity of purified CD73 (AMP-Glo assay)
Type: biochemical
Settings: 10 μM AMP, 0.1 ng CD73, 5min at 23°C
Test Readout: pIC50
Lab note — pIC50 values are minus log10 of concentrations in M.

# input Given the entry Nc1ncnc2c1ncn2[C@@H]1O[C@H](COP(=O)(O)CP(=O)(O)O)[C@@H](O)[C@H]1O , report its measured pIC50.
# output 6.52

---

Target: membrane-associated CD73 of MDA-MB-231 cells (Homo sapiens, UniProt P21589)
Construct: cell-based membrane-associated CD73 from MDA-MB-231 following AMP-Glo cell-based assay; endogenous in cells
Sequence (P21589 27-574): as above
Experiment: Cell-based membrane-associated CD73 activity (AMP-Glo cell-based assay)
Settings: 25K cells per well, 5μM AMP, 90min at 37°C
Test Readout: pIC50
Please express pIC50 as -log10 of the molar concentration.

# input Sample Nc1ncnc2c1ncn2[C@@H]1O[C@H](COP(=O)(O)CP(=O)(O)O)[C@@H](O)[C@H]1O [AMP-CP] — what was its pIC50?
# output 5.68
